- TARGET: p110δ/p85α (Homo sapiens (Human))
- Sequence (O00329 whole entry): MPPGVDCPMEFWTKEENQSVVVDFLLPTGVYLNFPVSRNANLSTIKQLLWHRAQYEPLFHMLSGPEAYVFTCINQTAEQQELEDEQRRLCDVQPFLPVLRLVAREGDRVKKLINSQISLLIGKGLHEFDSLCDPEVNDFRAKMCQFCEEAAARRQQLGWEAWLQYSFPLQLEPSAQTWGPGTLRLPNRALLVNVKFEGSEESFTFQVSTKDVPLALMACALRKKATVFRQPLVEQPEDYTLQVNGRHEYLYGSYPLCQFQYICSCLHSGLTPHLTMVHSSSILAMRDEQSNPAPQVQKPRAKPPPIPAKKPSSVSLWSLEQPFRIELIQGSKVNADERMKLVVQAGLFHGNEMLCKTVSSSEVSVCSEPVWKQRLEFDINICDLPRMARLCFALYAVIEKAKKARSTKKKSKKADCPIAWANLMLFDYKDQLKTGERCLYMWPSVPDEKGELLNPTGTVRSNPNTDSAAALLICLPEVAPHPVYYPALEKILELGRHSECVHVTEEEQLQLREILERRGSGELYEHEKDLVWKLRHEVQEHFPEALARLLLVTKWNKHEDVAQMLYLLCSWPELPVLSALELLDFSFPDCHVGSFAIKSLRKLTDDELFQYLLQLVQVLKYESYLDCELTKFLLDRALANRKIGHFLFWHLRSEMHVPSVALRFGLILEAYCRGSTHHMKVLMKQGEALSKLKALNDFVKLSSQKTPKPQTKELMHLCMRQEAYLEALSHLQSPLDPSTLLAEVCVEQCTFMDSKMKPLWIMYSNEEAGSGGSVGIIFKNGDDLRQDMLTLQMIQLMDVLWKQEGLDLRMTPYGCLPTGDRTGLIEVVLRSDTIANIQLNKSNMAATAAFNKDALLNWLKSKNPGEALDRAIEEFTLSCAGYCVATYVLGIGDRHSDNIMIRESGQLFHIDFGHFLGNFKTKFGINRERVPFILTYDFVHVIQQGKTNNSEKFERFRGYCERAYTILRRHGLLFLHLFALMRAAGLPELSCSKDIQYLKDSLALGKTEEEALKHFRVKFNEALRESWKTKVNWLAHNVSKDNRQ
- Sequence (P27986 whole entry partner): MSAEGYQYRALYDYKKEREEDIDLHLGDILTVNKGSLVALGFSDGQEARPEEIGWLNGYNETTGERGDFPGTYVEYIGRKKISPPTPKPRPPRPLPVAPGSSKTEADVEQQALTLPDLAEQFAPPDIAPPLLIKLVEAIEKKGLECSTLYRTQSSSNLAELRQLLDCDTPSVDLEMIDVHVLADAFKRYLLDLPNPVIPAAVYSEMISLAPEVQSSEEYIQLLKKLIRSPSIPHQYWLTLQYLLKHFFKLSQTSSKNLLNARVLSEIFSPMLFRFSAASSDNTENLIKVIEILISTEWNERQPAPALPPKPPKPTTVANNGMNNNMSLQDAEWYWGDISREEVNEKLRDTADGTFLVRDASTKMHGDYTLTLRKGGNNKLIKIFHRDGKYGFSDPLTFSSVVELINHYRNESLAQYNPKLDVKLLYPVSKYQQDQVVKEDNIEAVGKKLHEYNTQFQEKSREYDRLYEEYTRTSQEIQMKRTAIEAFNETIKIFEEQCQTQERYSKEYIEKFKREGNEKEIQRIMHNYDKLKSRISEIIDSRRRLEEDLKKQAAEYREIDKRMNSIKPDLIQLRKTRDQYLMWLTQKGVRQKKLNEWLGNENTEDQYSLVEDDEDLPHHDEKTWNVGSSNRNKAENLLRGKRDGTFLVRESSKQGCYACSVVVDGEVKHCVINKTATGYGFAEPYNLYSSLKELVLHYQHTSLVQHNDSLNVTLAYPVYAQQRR
- ASSAY_METHOD_TEXT: PI 3-Kinase (human) HTRF assay, p110δ/p85α
- Assay type: biochemical
- MEASUREMENT_CONTEXT: read-out: PI3K δ IC50
pIC50: −log10 of the molar value.
PROPERTY_NAME: pIC50

>>> df
                            compound_string  endpoint_value
0  Nc1nc2cc(-c3cn4c(-c5cn[nH]c5)cnc4cn3)ccc2o1          > 5.00
1  CS(=O)(=O)N1CCN(C(=O)c2cnc3ccc(-c4ccc5oc(N)nc5c4)cn23)CC1          > 5.00
2  CC(C)N1CCN(c2cnc3ccc(-c4ccc5oc(N)nc5c4)cc3n2)CC1          > 6.00
3  CN1CCN(c2cnc3ccc(-c4ccc5oc(N)nc5c4)cc3n2)CC1          > 5.00
4  Nc1nc2ccc(-c3ccc4nccc(-c5ccncc5)c4c3)cc2s1          > 6.00
5  CC(C)(C)N1CCN(C(=O)c2cnc3ccc(-c4ccc5oc(N)nc5c4)cn23)CC1          > 5.00
6  Nc1nc2cc(-c3ccc4ncc(C(=O)N5CCCC5)n4c3)ccc2o1          > 6.00
7  CN1CCN(c2cc(-c3cnc4ccc(-c5ccc6oc(N)nc6c5)cn34)ccn2)CC1          > 7.00

====

- TARGET: p110γ (Homo sapiens (Human))
- Sequence (P48736 whole entry): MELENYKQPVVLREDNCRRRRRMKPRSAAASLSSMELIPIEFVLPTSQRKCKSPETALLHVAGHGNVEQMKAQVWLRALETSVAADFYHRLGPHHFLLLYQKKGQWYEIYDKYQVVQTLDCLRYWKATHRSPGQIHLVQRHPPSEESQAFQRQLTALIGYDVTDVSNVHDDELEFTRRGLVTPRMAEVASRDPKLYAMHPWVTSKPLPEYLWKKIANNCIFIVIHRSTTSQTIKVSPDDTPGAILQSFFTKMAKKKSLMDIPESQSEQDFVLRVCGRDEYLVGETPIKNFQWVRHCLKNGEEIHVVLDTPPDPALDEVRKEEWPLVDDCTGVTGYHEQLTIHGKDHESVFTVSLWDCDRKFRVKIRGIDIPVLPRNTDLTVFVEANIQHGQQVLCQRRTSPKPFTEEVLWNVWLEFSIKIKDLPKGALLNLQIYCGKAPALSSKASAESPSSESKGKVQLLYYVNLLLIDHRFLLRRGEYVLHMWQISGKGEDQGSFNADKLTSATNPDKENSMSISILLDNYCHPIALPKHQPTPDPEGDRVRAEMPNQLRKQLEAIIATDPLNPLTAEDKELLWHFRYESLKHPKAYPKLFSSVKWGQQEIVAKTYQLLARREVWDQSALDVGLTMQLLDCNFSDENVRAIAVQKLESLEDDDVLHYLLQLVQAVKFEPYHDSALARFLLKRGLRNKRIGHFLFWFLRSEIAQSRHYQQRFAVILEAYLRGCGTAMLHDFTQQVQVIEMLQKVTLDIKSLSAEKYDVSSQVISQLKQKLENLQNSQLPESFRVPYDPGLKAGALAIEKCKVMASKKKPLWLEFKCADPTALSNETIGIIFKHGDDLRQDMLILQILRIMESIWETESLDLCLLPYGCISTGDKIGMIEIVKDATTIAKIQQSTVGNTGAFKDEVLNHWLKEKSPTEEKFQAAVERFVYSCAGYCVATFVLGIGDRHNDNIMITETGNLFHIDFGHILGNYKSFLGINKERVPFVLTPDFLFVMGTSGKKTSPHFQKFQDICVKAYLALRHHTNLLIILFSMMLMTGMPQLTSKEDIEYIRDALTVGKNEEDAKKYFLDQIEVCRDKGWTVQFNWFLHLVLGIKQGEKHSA
- ASSAY_METHOD_TEXT: PI 3-Kinase (human) HTRF assay, p110γ
- Format: biochemical
- MEASUREMENT_CONTEXT: in vitro; read-out: PI3K γ IC50
pIC50: −log10 of the molar value.
Measured pIC50, listed per entry.
PROPERTY_NAME: pIC50

>>> df
                            compound_string                        target  endpoint_value
0  CN1CCN(CCNC(=O)c2cnc3ccc(-c4ccc5oc(N)nc5c4)cn23)CC1  p110γ (Homo sapiens (Human))          > 6.00
1         Nc1cn2cc(-c3ccc4nc(N)oc4c3)ccc2n1  p110γ (Homo sapiens (Human))          > 5.00
2  Nc1nc2cc(-c3ccc4ncc(N5CC[C@H](O)C5)nc4c3)ccc2o1  p110γ (Homo sapiens (Human))          > 6.00
3  Nc1nc2cc(-c3ccc4ncc(N5CC(N)C5)nc4c3)ccc2o1  p110γ (Homo sapiens (Human))          > 6.00
4  Cc1ccc(NC(=O)c2cnc3ccc(-c4ccc5oc(N)nc5c4)cn23)cn1  p110γ (Homo sapiens (Human))          > 7.00

====

- TARGET: p110α/p85α (Homo sapiens (Human))
- Sequence (P42336 whole entry): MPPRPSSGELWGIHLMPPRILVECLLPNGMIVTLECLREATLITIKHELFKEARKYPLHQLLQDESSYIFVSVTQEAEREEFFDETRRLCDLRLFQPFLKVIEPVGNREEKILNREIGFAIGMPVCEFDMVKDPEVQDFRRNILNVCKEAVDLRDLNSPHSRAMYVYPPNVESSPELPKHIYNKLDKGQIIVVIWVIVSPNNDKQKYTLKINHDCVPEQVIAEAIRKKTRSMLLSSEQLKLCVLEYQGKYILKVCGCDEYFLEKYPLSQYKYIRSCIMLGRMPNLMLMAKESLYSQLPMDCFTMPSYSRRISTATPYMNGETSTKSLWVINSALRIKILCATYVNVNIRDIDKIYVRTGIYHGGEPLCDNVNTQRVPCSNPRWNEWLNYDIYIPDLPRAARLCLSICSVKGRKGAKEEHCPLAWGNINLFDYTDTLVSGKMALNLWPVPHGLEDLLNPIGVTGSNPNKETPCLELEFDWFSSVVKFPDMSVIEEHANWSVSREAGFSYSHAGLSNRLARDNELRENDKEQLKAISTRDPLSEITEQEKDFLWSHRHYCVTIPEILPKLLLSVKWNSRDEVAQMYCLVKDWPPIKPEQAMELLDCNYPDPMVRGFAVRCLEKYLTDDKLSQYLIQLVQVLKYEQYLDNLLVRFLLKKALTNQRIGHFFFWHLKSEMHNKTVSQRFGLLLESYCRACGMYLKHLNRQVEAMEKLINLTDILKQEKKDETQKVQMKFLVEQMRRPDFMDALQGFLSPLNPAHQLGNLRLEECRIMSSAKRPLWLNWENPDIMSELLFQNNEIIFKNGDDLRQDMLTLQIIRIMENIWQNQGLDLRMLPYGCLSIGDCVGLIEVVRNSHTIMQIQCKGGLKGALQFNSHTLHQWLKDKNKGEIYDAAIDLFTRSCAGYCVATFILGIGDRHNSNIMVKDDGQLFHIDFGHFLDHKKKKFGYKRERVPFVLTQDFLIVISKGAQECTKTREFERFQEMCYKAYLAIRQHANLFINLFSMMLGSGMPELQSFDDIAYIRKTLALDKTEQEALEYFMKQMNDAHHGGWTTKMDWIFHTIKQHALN
- Sequence (P27986 whole entry partner): as the sequence (P27986 whole entry partner) above
- ASSAY_METHOD_TEXT: PI 3-Kinase (human) HTRF assay, p110α/p85α
- Format: biochemical
- MEASUREMENT_CONTEXT: read-out: PI3K α In Vitro IC50
Measured IC50, listed per entry.
PROPERTY_NAME: IC50

In [3]: df
Out[3]:
                                   molecule  property_name  endpoint_value
0  COc1ncc(-c2ccc3ncc(C(=O)N4CCOCC4)n3c2)c2cn[nH]c12 [compound 517]           IC50       < 1000 nM
1  CO[C@@H]1CCN(C(=O)c2cnc3ccc(-c4ccc5oc(N)nc5c4)cn23)C1 [compound 464]           IC50        < 100 nM
2  O=C(c1cnc2ccc(-c3cnc(Cl)c(NS(=O)(=O)c4ccc(F)cc4)c3)cn12)N1CCOCC1 [compound 457]           IC50        < 100 nM
3  O=C(c1cnc2ccc(-c3cncc(S(=O)(=O)Nc4ccccc4)c3)cn12)N1CCOCC1 [compound 447]           IC50      < 10000 nM
